Numbers sourced from paper PMC6152666.

Tested on: NO production in RAW264.7 mouse macrophages stimulated by lipopolysaccharide (LPS)
TEST PROTOCOL: Inhibitory assay of NO production in LPS-stimulated RAW264.7 macrophages
Assay type: cell-based
EXPERIMENTAL CONTEXT: Mus musculus; RAW264.7 + LPS 5 μg/mL, 24 h
OBSERVABLE: IC50

The compound identified as CC1(C)O[C@H]2CC(=O)OC[C@]23[C@H]2CC[C@@]4(C)[C@H](C5=CC(=O)OC5O)OC(=O)[C@H]5O[C@]54[C@]2(C)C(=O)C[C@@H]13 (stereo partly drawn) registered its IC50 at > 30 µM

Consider CC1(C)OC(=O)C=C[C@]2(C)[C@H]3CC[C@@]4(C)[C@H](C5=CC(=O)OC5O)OC(=O)[C@H]5O[C@]54[C@]3(C)C(=O)C[C@@H]12 (stereo partly drawn) . Its measured IC50 is > 30 µM

Continuing:
The value of IC50 measured for the compound COC1OC(OC)C2(C3OC(=O)C4OC45C3(C)CCC3C46COC(=O)CC4OC(C)(C)C6CC(=O)C35C)OC12 (stereo not drawn) turned out to be > 30 µM
